Test system: T-47D
test method notes: NCI-60 SRB assay, T-47D (Breast Cancer)
Type: cell-based, human
stated conditions: 10 µM, 48 h, growth vs untreated control
observation type: G%

// solved cases for G% follow
In [3]: df
Out[3]:
                                   compound  study_target  observed_value
0  C[C@@H]1NC(c2ccc(Br)cc2)=Nc2nc3ccccn3c2C1=O [JMV5038]         T-47D          67,23%
1  C[C@@H]1NC(c2ccc(N=[N+]=[N-])cc2)=Nc2nc3ccccn3c2C1=O [Compound 5]         T-47D          76,97%
2  C[C@@H]1NC(c2csc3ccccc23)=Nc2nc3ccccn3c2C1=O [Compound 8]         T-47D          45,91%

--- query ---
Item [N-]=[N+]=NCCCC[C@@H]1NC(c2ccc(Br)cc2)=Nc2nc3ccccn3c2C1=O [Compound 16] : provide G%
81,60%

====

System: HCT-15
test method notes: NCI-60 SRB assay, HCT-15 (Colon Cancer)
Assay type: cell-based, human
stated conditions: 10 µM, 48 h, growth vs untreated control
# maps each entry to its G%

Recorded G%, per entry:
>>> df
                                   compound  observed_value
0  C[C@@H]1NC(c2ccc(N=[N+]=[N-])cc2)=Nc2nc3ccccn3c2C1=O [Compound 5]          68,39%
1  C[C@@H]1NC(c2csc3ccccc23)=Nc2nc3ccccn3c2C1=O [Compound 8]          76,04%
2  [N-]=[N+]=NCCCC[C@@H]1NC(c2ccc(Br)cc2)=Nc2nc3ccccn3c2C1=O [Compound 16]          98,33%

Provide only the value of recorded G% for C[C@@H]1NC(c2ccc(Br)cc2)=Nc2nc3ccccn3c2C1=O [JMV5038]
30,75%

====

Reported G% is given for each of the following compounds.
Tested on: TK-10
test method notes: NCI-60 SRB assay, TK-10 (Renal Cancer)
Assay type: cell-based, human
stated conditions: 10 µM, 48 h, growth vs untreated control

Answer with reported G% of [N-]=[N+]=NCCCC[C@@H]1NC(c2ccc(Br)cc2)=Nc2nc3ccccn3c2C1=O [Compound 16]
129,91%

Look up and state reported G% for C[C@@H]1NC(c2ccc(Br)cc2)=Nc2nc3ccccn3c2C1=O [JMV5038]
109,66%

Complete the entry with G% for C[C@@H]1NC(c2ccc(N=[N+]=[N-])cc2)=Nc2nc3ccccn3c2C1=O [Compound 5]
133,27%

Give the reported value of G% for this record: C[C@@H]1NC(c2csc3ccccc23)=Nc2nc3ccccn3c2C1=O [Compound 8]
111,73%

====

Tested on: A498
test method notes: NCI-60 SRB assay, A498 (Renal Cancer)
Format: cell-based, human
stated conditions: 10 µM, 48 h
observation type: Mean G% - G%

>>> df
                              line_notation  observed_value
0  C[C@@H]1NC(c2ccc(Br)cc2)=Nc2nc3ccccn3c2C1=O         -15,64%
1  [N-]=[N+]=NCCCC[C@@H]1NC(c2ccc(Br)cc2)=Nc2nc3ccccn3c2C1=O           8,90%
2  C[C@@H]1NC(c2csc3ccccc23)=Nc2nc3ccccn3c2C1=O          13,54%

Consider the additional compound presented here.
Tell me its Mean G% - G% on A498: C[C@@H]1NC(c2ccc(N=[N+]=[N-])cc2)=Nc2nc3ccccn3c2C1=O
-14,16%
